Assay: NCI Yeast Anticancer Drug Screen. Data for the rad50 strain (AID 155);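 also: 0% = growth of vehicle-only cultures of the same strain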
Settings: S. cerevisiae rad50 strain growth inhibition; at 50.0 µM; hits give high values
This is part of a sample that, as a whole, favours compounds with a hit. Of some 79,000 tested, about 15% had one in any assay. Activity calls are given as the source filed them. Rule as the data show it: active = growth inhibition above about 70%; inactive = the rest.
recorded-metric: growth inhibition

compound | growth inhibition
Cc1ccc(OCCNCCO)cc1 | 23.3% (inactive)

Asked: Using the record for N#CC(NNC(=O)Cc1ccccc1)c1c(O)ccc2ccccc12 (stereo not given) , report its growth inhibition.
Given back: 7.45% (inactive)

Asked: And for O=C(c1ccccc1)C1CC2C=CC1C2 (stereo not given) ?
Given back: 4.3% (inactive)

Asked: And for `Brc1cccc(-c2nnc(-c3ccccc3)o2)c1` ?
Given back: -4.15% (inactive)

Asked: And for C[C@@]12CCC(=O)C=C1CC[C@H]1C2C(=O)C[C@]2(C)C1CC[C@@]2(O)C(=O)COC(=O)CCC(=O)O (stereo not given in full) ?
Given back: 0.1% (inactive)

Asked: And for `CCCCNC(=O)/C=C\C(=O)O` ?
Given back: 5.95% (inactive)

* * *

Assay: NCI Yeast Anticancer Drug Screen. Data for the rad50 strain (AID 155);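 also: 0% = growth of vehicle-only cultures of the same strain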
Settings: S. cerevisiae rad50 strain growth inhibition; at 50.0 µM; hits give high values
This is part of a sample that, as a whole, favours compounds with a hit. Of some 79,000 tested, about 15% had one in any assay.
recorded-metric: growth inhibition (%)
Unit % implied. Number only.

Example entries begin here.
molecule | growth inhibition, %
c1ccc2c(c1)CCc1c-2n[nH]c1-c1[nH]nc2c1CCc1ccccc1-2 | -12.1
CCOC(=O)/C(=C\c1c(C)[nH]c2ccccc12)P(=O)(OCC)OCC | -15.2
CC(=O)Nc1ccc(Sc2ccc(NC(C)=O)cc2O)c(O)c1 | 34.1

Asked: Using the record for CC(=O)C(N=Nc1ccc(S(=O)(=O)NC2NCCC(C)N2)cc1)C(=O)Nc1ccccc1C (centres undefined) , report its growth inhibition.
Given back: 55.1

Asked: And for `CCCCn1cnc2c(SSc3ncnc4c3ncn4CCCC)ncnc21` ?
Given back: -11.6

Asked: And for `ONc1ncnc2[nH]cc(Br)c12` ?
Given back: 4

Asked: And for `O=C1CN(c2ccccc2)C(=O)CN1/N=C/c1ccc[nH]1` ?
Given back: -27.4

Asked: And for `C[CH2][Ge]([CH2]C)[CH2]C.C[CH2][Ge]([CH2]C)[CH2]C` ?
Given back: 6.5

* * *

This listing pairs compounds with measured growth inhibition.
Test: NCI Yeast Anticancer Drug Screen. Data for the rad50 strain (AID 155);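 also: 0% = growth of vehicle-only cultures of the same strain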
Conditions: S. cerevisiae rad50 strain growth inhibition; at 50.0 µM; hits give high values
Experimental: Growth inhibition of yeast strains with defined genetic alterations is measured as a screen for potential anti-cancer activity. Selected strains with alterations in DNA damage repair or cell cycle control were exposed to compounds and growth inhibition was measured relative to vehicle treated controls. The strain used in this assay is rad50
About 79,000 compounds went through this panel and 15% of them were active in at least one assay; those are over-represented in the sample as a whole.
Unit % implied. Number only.

compound | growth inhibition [%]
OCCN(CCO)C(Cc1ccccc1)Cc1ccccc1 | -7.9
Nc1cc2c(O)cc(S(=O)(=O)O)cc2cc1S(=O)(=O)O | -5.9
O/N=C\c1cccc[n+]1Cc1ccc2ccccc2c1Br | -1.7
CCOC(=O)c1ccc(NC(=O)Oc2ccc(SC)cc2)cc1 | 8.2
CCOC(CO)OCC | 28.9

Asked: Using the record for `CCC(=N\NC(=S)NC)/C(C)=N\NC(=S)NC` , report its growth inhibition.
Given back: -8.3

Asked: And for `O=C1CC(Cc2n[nH]c3c2CCC3)CC(=O)N1` ?
Given back: -8.25

Asked: And for `CNC(=O)OCCCCCCCCCCOC(=O)NC` ?
Given back: 2.8

Asked: And for `Fc1cccc(Cl)c1CSc1n[nH]c(C(F)(F)F)n1` ?
Given back: -4.65

Asked: And for NC(Cc1ccccc1)C(=O)CCl (centres undefined) ?
Given back: 31.6

* * *

This listing pairs compounds with measured growth inhibition.
Assay: NCI Yeast Anticancer Drug Screen. Data for the rad50 strain (AID 155);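 also: 0% = growth of vehicle-only cultures of the same strain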
Details: S. cerevisiae rad50 strain growth inhibition; at 50.0 µM; hits give high values
The panel holds about 79,000 compounds, 15% with a hit somewhere; the sample as a whole holds those more often.
Unit % implied. Number only.

compound | unit-symbol | growth inhibition
c1ccc(CNCCN(Cc2ccccc2)Cc2ccccc2)cc1 | % | 31.6
CC(=O)OCC1OC(Cl)C(OC(=O)C(Cl)(Cl)Cl)C(OC(C)=O)C1OC(C)=O (stereo not drawn) | % | 2.8
CN(C)CCCC[N+](C)(C)Cc1ccc(C[N+](C)(C)CCCC[N+](C)(C)Cc2ccc(CCl)cc2)cc1 | % | -9.7
C1=CCOCOC1 | % | -2.35
CCCOc1cc(C)c(C(=O)OC(C)CN2CCCC2)c(C)c1 (stereo not drawn) | % | 3.5
[Cl][Pt+2][Cl].[NH-]CC(O)c1ccc2oc3ccccc3c2c1.[NH-]CC(O)c1ccc2oc3ccccc3c2c1 (stereo not drawn) | % | -23.3
COc1cc2cc(OC)c3cc4c(cc3c2c(OC)c1OC)OCO4 | % | 12.2
CC[O-].CC[O-].O=Nc1ccc2cc([O-])ccc2c1.O=Nc1ccc2cc([O-])ccc2c1.[Ti+4] | % | 34.9
CC1CCC(C)C(O)C1 (stereo not drawn) | % | -21.9
CCN=C1SCCCS1 | % | -8.8

Asked: Using the record for `CCNN(CC)C(N)=O` , report its growth inhibition.
Given back: 5.2

Asked: And for `O=C1CCSC(=S)N1c1ccc(F)cc1` ?
Given back: 7.15

Asked: And for `CSc1ncnc2c1ncn2CCC(=O)O` ?
Given back: -33.9

* * *

Test: NCI Yeast Anticancer Drug Screen. Data for the rad50 strain (AID 155);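 also: 0% = growth of vehicle-only cultures of the same strain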
Settings: S. cerevisiae rad50 strain growth inhibition; at 50.0 µM; hits give high values
Compounds without any hit were thinned out: in the full panel of roughly 79,000, 15% have a hit. Calls of active or inactive are those of the source. Cut-off read from the data, not from the text of the source: active = growth inhibition above about 70%; inactive = the rest.
recorded-metric: growth inhibition

Example entries begin here.
compound | growth inhibition
CC(=O)Nc1ccc2c(=O)cc[nH]c2n1 | 13.7% (inactive)
S=C(S)N(Cc1ccccc1)Cc1ccccc1 | 33.4% (inactive)
CCN1CCCN(CC)C1=O | 6.1% (inactive)
CN(C)CCCNc1ccc([N+](=O)[O-])c2nc3ccccc3c(N)c12 | -2.1% (inactive)
N#CC(C#N)CN(C1=NCCO1)c1cccc2c1CCCC2 | -16.6% (inactive)

Asked: Using the record for O=C1OC(c2ccccc2)(c2ccccc2)CC1c1ccccc1 (configuration not stated) , report its growth inhibition.
Given back: 9.05% (inactive)

Asked: And for `CC(C)Cn1cnc2c(SCc3ccccn3)nc(N)nc21` ?
Given back: -6.45% (inactive)

* * *

Assay: NCI Yeast Anticancer Drug Screen. Data for the sgs1 mgt1 strain (AID 161);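 also: 0% = growth of cultures given vehicle only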
Settings: S. cerevisiae sgs1 mgt1 strain, at 50.0 µM, hits give high values
Compounds without any hit were thinned out: in the full panel of roughly 79,000, 15% have a hit.
This listing pairs compounds with measured growth inhibition.
Unit % implied. Number only.

Example entries begin here.
compound | recorded-value
CC(=O)Nc1cc(CN2CCCCC2)c(O)c2ncccc12 | -38.3
Cc1ccnc(NC(=O)Nc2ccccc2Cl)c1 | 1.3
Cc1ccc(C)c(N2C(=O)C(=O)C(c3nc4ccccc4s3)/C(=N/NC(=O)NN)C2=O)c1 (configuration not stated) | -5.75
N=c1oc2cc(O)ccc2cc1C(=O)NCc1ccccc1 | -2.9
Nc1[nH]nc2nc3n(c(=O)c12)CCCCC3 | 5.6
NC(=O)NC(=O)Cc1ccc([N+](=O)[O-])cc1 | 5.1
CC(=O)NC1c2ccccc2CCC1OC(C)=O (configuration not stated) | 22.9
CN(C)c1ccc(C2(c3ccc(N(C)C)cc3)NNC(=O)c3cc(N(C)C)ccc32)cc1 | 13.2
COc1ccc(C2COc3cc4c(cc3C2)OCO4)cc1 (configuration not stated) | -20.6
CCN(CC)Cc1cc(Nc2c3ccc([N+](=O)[O-])cc3nc3ccc(OC)cc23)ccc1O | 56

Asked: Using the record for `Clc1c(Cl)c2ccccc2c2ccccc12` , report its growth inhibition.
Given back: 11.3

Asked: And for `CC(C)NCC(C)(C)[N+](=O)[O-]` ?
Given back: 3.65

Asked: And for C=C(Br)CN1CCC2(c3ccccc3)C(=O)C([Se]c3ccccc3)CCC12 (configuration not stated) ?
Given back: 8.9

Asked: And for CC1CCCc2c(CC3CC(=O)NC(=O)C3)nc(N)nc21 (configuration not stated) ?
Given back: -18.8

Asked: And for `C=CCNC(=O)c1ccccc1OCC(=O)O` ?
Given back: -8.75

Asked: And for C=C1CC[C@H]2C(=O)OC(c3ccoc3)C[C@]2(C)C/C=C\C=C/1C(=O)OC (some centres not stated) ?
Given back: -19.8

Asked: And for `N#C/C(N)=C(\C#N)NC=NCc1ccccc1` ?
Given back: 20.2

Asked: And for `CN(/N=C\c1ccc2ccccc2c1)C1=NCCN1` ?
Given back: -14.8

Asked: And for `O=[N+]([O-])c1ccc(Oc2c3ccccc3nc3ccccc23)cc1` ?
Given back: 19.6

Asked: And for `Cc1ccc(S(=O)(=O)/C=C\S(=O)(=O)c2ccc(C)cc2)cc1` ?
Given back: 5.15

Asked: And for `COc1ccc(CN2CCCN(Cc3ccc(OC)cc3OC)C2c2cccc(OC)c2O)c(OC)c1` ?
Given back: 12.6

Asked: And for S=C(N/N=C/c1ccc(Cl)cc1Cl)NC1CCc2ccccc21 (configuration not stated) ?
Given back: -9.7

Asked: And for `O=S1(=O)CC(N2CCCCC2)C1` ?
Given back: 17.3

Asked: And for `CCN(CC)CCOC(=O)c1c(C)c(C)cc(C)c1C` ?
Given back: -6.45

Asked: And for `O=c1[nH]c(Nc2ccc(F)c(Cl)c2)nc2nc[nH]c12` ?
Given back: 4.6
